Kindly state TGI for each of the entries shown.
# Tested on: NCI-H226 lung
# ASSAY_PROCEDURE: NCI tumour cell line growth inhibition, 48 h

Sample records with TGI:
{"columns": ["COMPOUND", "TARGET_OF_ASSAY", "VAL"],
 "data": [
  ["O=C1CCN2c3ccccc3[C@H]3Cc4cccc(c4[C@@H]2C3)CCO1", "NCI-H226 lung", "> 100 µM"],
  ["Cc1ccc(CNc2ccc(Br)cc2)cc1", "NCI-H226 lung", "> 100 µM"],
  ["COc1cccc2c1-c1nc(N)c3c(OC)cccc3c1C2=O", "NCI-H226 lung", "> 100 µM"],
  ["O=C1CC(c2c[nH]c3ccc(F)cc23)C(=O)N1 (stereo not drawn)", "NCI-H226 lung", "> 100 µM"],
  ["COc1cc(/C=C/C(=O)c2cccc(-n3cc(-c4cc(OC)c(OC)c(OC)c4)[nH]c3=O)c2)cc(OC)c1OC", "NCI-H226 lung", "80.3 µM"]
]}

Kindly give each listed record's TGI.
1. CCCCC1=CSC(c2ccccc2)=C(c2ccccc2)S1
2. CC(=O)Nc1[nH]n(C)c(=O)c1-c1nnc(C)s1
3. NC(=O)c1ccc2c(c1)-c1nc-2nc2[n-]c(nc3nc(nc4[n-]c(n1)c1ccc(C(N)=O)cc41)-c1ccc(C(N)=O)cc1-3)c1ccc(C(N)=O)cc21.[Co+2]
4. CCOC(=O)C(C)(NC(=O)c1ccc(NCc2ccc3nc(NC(=O)c4ccccc4)nc(NC(=O)c4ccccc4)c3c2)cc1)C(=O)OCC
5. O=C1OC(c2ccccc2)=NC1c1ccccc1 (stereo not drawn)
6. OCC#CCNCl
7. CSc1ncnc2c1cnn2Cc1cn(COCCO)nn1

Result ::
1: > 100 µM; 2: > 100 µM; 3: > 50 µM; 4: 28.4 µM; 5: > 100 µM; 6: > 100 µM; 7: > 100 µM

Query :: Provide TGI, tested on NCI-H226 lung, for O=C(Nc1ccc([N+](=O)[O-])cc1)Nn1cnnc1 .
Result :: 2.31 µM

====

# System: A549 NSCLC
# ASSAY_PROCEDURE: NCI tumour cell line growth inhibition, 48 h
OBSERVED_PROPERTY: TGI

{"columns": ["MOLECULE", "OBSERVED_PROPERTY", "VAL"],
 "data": [
  ["COc1ccc2nc3cc(Cl)ccc3c(NCCCNCCO)c2c1", "TGI", "2.06 µM"],
  ["COCC(C)(C)N=CN1Cc2cc3ccccc3nc2C1", "TGI", "> 100 µM"],
  ["CCS(=O)C(=O)N(O)c1ccc(Cl)cc1 (stereo unspecified)", "TGI", "> 100 µM"]
]}

Each of the following entries comes with a recorded value; kindly state TGI for each.
1. Cn1c(=O)c2[nH]c(N=O)nc2n(C)c1=O
2. N#CC(NNC(=O)Cc1ccccc1)c1cccc(O)c1 (stereo unspecified)
3. O=C1/C(=C/c2ccc(Cl)c(Cl)c2)CN(C(=O)C(Cl)Cl)C/C1=C\c1ccc(Cl)c(Cl)c1

Result ::
["> 100 µM", "> 100 µM", "0.908 µM"]

====

# Test system: KM12 colon
# ASSAY_PROCEDURE: NCI tumour cell line growth inhibition, 48 h; in the data active = GI50 below about 0.43 µM; inactive = the rest
Pick from yes (active), no (inactive) when you respond.

Please review the following examples before continuing.
{"columns": ["COMPOUND", "ASSIGNED_LABEL"],
 "data": [
  ["Clc1nccc2c(-c3csc(-c4c[nH]c5ccc(Br)cc45)n3)c[nH]c12", "no"],
  ["O=C1NC(=NCCc2ccc(F)cc2)S/C1=C\\c1ccc2ncccc2c1", "no"]
]}

# next compound below
Query :: Fill in: this test's call for NS(=O)(=O)c1ccc(Nc2cc(-c3ccc(O)c(F)c3)[nH]n2)cc1 is ___
Result :: no
